IC50 values for UniProt P08238 compiled from several publications are listed below.
quantity-name: IC50

• CCNC(=O)c1cc2c(C(=NOCCN3CCCC3)c3ccncc3)nc(N)nc2s1 = > 10 µM
• COc1ccc(-c2c(-c3cc(Cl)c(O)cc3O)n[nH]c2C(=O)N[C@H](C)C(=O)N2CCN(C)CC2)cc1 = < 10 µM
• Nc1nc(C(=NOCCN2CCCC2)c2ccc3c(c2)OCO3)c2cc(C(=O)NCC(F)(F)F)sc2n1 = < 10 µM
• CC(C)(C)NC(=O)c1cc2c(C(=NOCCN3CCCC3=O)c3ccc4c(c3)OCO4)nc(N)nc2s1 = < 10 µM
• Cc1ccc(-c2ccnc3[nH]cc(C=O)c23)c(C)c1 = < 1 µM
• CCNC(=O)c1cc2c(C(=NOCCN3CCCC3)c3ccc4c(c3)OCO4)nc(N)nc2s1 (mixture of isomers) = < 10 µM
• Oc1ccc(C2NN=C(Cc3ccccc3)S2)c(O)c1 (centres unmarked) = > 10 µM
• CCOC(=O)c1cc2c(C(=NOC)c3ccc4c(c3)OCO4)nc(N)nc2s1 = < 10 µM

====

IC50 values for Heat shock protein HSP 90-beta (Homo sapiens) compiled from several publications are listed below.
quantity-name: IC50

• Nc1nc(C(=NOCCN2CCCC2)c2ccc3c(c2)OCO3)c2cc(C(=O)NC3CC3)sc2n1 = < 10 µM
• CCN(CC)CCOc1cc(-c2nc(Cl)nc3[nH]cnc23)c(Cl)cc1Cl = < 10 µM
• CSc1nc(-c2ccc(C#N)cc2)c2nc[nH]c2n1 = < 10 µM
• CCNC(=O)c1cc2c(C(=NO)c3ccc(OC)cc3)nc(N)nc2s1 = < 10 µM
• CCNC(=O)c1cc2c(C(=NOCC(=O)N3CCCCC3)c3ccc4c(c3)OCO4)nc(N)nc2s1 = < 10 µM
• COc1ccc(CC(=O)N2CCN(c3c[nH]nc3-c3cc(Cl)c(O)cc3O)CC2)cc1 = > 10 µM
• CCOC(=O)CN1CCN(c2c[nH]nc2-c2cc(Cl)c(O)cc2O)CC1 = < 10 µM
• CN(C)CCSc1nc(-c2ccc(Cl)cc2Cl)c2nc[nH]c2n1 = < 10 µM
• CC(C)(C)NC(=O)c1cc2c(C(=NO)c3ccc4c(c3)OCO4)nc(N)nc2s1 = < 10 µM
• CCNC(=O)c1cc2c(C(=NOCCN3CCCC3)c3ccc(-n4cccc4)cc3)nc(N)nc2s1 = > 10 µM
• CCNC(=O)C(C)(C)Sc1nc(-c2ccc(Cl)cc2Cl)c2nc[nH]c2n1 = > 10 µM
• COC(=O)[C@H](C)NC(=O)c1[nH]nc(-c2cc(Cl)c(O)cc2O)c1-c1ccc(OC)cc1 = < 10 µM
• COC(=O)[C@@H](C)NC(=O)c1[nH]nc(-c2cc(Cl)c(O)cc2O)c1-c1ccc(OC)cc1 = < 10 µM
• N#Cc1c[nH]c2nc(OCCCN3CCCCC3)cc(-c3ccc(Cl)cc3Cl)c12 = 1 to 10 µM
• N#Cc1c[nH]c2nccc(-c3cccc(O)c3)c12 = 1 to 10 µM
• CCNC(=O)c1cc2c(C(=NOCCN3CCCC3)c3ccc(-n4cccn4)cc3)nc(N)nc2s1 = > 10 µM
• Clc1nc(-c2ccc3c(c2)CCO3)c2nc[nH]c2n1 = > 10 µM
• COc1cc(-c2cc(Cl)nc3[nH]cc(C#N)c23)c(Cl)cc1Cl = < 1 µM
• CS(=O)(=O)c1nc(-c2ccc(Cl)cc2Cl)c2nc[nH]c2n1 = > 10 µM
• CCNC(=O)c1cc2c(C(=NO)c3ccc(OC)c(OC)c3)nc(N)nc2s1 = < 10 µM
• N#Cc1c[nH]c2nccc(-c3ccc(Cl)cc3Cl)c12 = < 1 µM
• Oc1ccc(-c2csc(-c3c[nH]c4ccccc34)n2)c(O)c1 = > 10 µM
• CCNC(=O)c1cc2c(C(=NO)c3ccoc3)nc(N)nc2s1 = < 10 µM
• Clc1ccc(-c2nc(Sc3nc[nH]n3)nc3[nH]cnc23)c(Cl)c1 = < 10 µM
• COc1cc(-c2ccnc3[nH]cc(C#N)c23)c(Cl)cc1Cl = < 1 µM
• CSc1nc(-c2cc(OCc3ccccc3)c(Cl)cc2Cl)c2nc[nH]c2n1 = < 10 µM
• CCNC(=O)c1cc2c(C(=NO)c3ccc4c(c3)OCCN4C)nc(N)nc2s1 (mixture of isomers) = < 10 µM
• CSc1nc(-c2ccc(C)cc2C)c2nc(Cl)[nH]c2n1 = > 10 µM
• COc1ccc(-c2c(-c3cc(Cl)c(O)cc3O)n[nH]c2C(=O)N[C@H](C)C(=O)NCCN(C)C)cc1 = < 10 µM
• CCNC(=O)c1cc2c(C(=NO)c3ccc4[nH]ccc4c3)nc(N)nc2s1 = < 10 µM
• CCNC(=O)c1cc2c(C(=NOCCN(CC)CC)c3ccc(-n4cccc4)cc3)nc(N)nc2s1 = > 10 µM
• CCNC(=O)CSc1nc(-c2ccc(Cl)cc2Cl)c2nc[nH]c2n1 = < 10 µM
• CCNC(=O)c1cc2c(C(=NO)c3cccc(OC)c3)nc(N)nc2s1 = < 10 µM
• Nc1nc(C(=NO)c2ccc3c(c2)OCO3)c2cc(C(=O)NC3CC3)sc2n1 = < 10 µM
• N#Cc1ccc(-c2nc(Cl)nc3[nH]cnc23)cc1 = < 10 µM
• CN(C)CCCOc1cc(-c2nc(Cl)nc3[nH]cnc23)c(Cl)cc1Cl = < 10 µM

====

Field: pIC50. System: Heat shock protein HSP 90-beta (Homo sapiens, UniProt P08238). Provenance: assorted publications.
pIC50: −log10 of the molar value.
quantity-name: pIC50

- CCNC(=O)c1cc2c(C(=NOCCN3CCCC3=O)c3ccc(N4CCCC4=O)cc3)nc(N)nc2s1: > 5.00
- COC(=O)CNC(=O)c1[nH]nc(-c2cc(Cl)c(O)cc2O)c1-c1ccc(OC)cc1: > 5.00
- Cc1ccccc1-n1c(S)nnc1-c1ccc(O)cc1O: > 5.00
- CCN(CC)CCOc1cccc(-c2ccnc3[nH]cc(C#N)c23)c1: 5.00 to 6.00
- COc1ccc(-c2c(-c3cc(Cl)c(O)cc3O)n[nH]c2C(=O)N[C@H](C)C(=O)NCCN2CCOCC2)cc1: > 5.00
- N#Cc1c[nH]c2nc(Cl)cc(-c3cccc(O)c3)c12: > 6.00
- CCNC(=O)c1cc2c(C(=NOCCN3CCCC3=O)c3ccc(-n4cccn4)cc3)nc(N)nc2s1: > 5.00
- CCOC(=O)CSc1nc(-c2ccc(Cl)cc2Cl)c2nc[nH]c2n1: > 5.00

====

Before we begin, note that these IC50 values for Heat shock protein HSP 90-beta (Homo sapiens) originate from several publications.
quantity-name: IC50

• Cc1ccc(-c2nc(Cl)nc3[nH]cnc23)c2ccccc12 = > 10 µM
• COc1cc(-c2ccccc2)c2c(C#N)c[nH]c2n1 = < 1 µM
• CN(C)CCNC(=O)c1cc2c(C(=NOCCN3CCCC3)c3ccc4c(c3)OCO4)nc(N)nc2s1 = > 10 µM
• N#Cc1c[nH]c2nc(Cl)cc(-c3ccc(Cl)cc3Cl)c12 = < 1 µM
